B1: Homeobox protein cut-like 1, residues 941 to 1008; numbered along this chain, P39880 (parent)
chain: QEVDTIELTRQVKEKLAKNGICQRIFGEKVLGLSQGSVSDMLSRPKPWSKLTQKGREPFIRMQLWLNG

variants of: B1; assay: abundance fitness (aPCA) (normalised: wild type 0, dead -1); higher = more abundant; growth selection in yeast, the domain comes from the species named; conditions: Homo sapiens
Please respond with reported abundance fitness for every item in the list.
Answers are plain numbers.

// known answers, use as guide
- residueSequence: "QEVDTIELTRQVKEKLAKNGICQRIFGEKVHGLSQGSVSDMLSRPKPWSKLTQKGREPFIRMQLWLNG [L31H]"
  measValue: -0.313
- residueSequence: "QEVDTIELTRQVKEKLHKNGICQRIFGEKVLGLSQGSVSDMLSRPKPWSKLTQKGREPFIRMQLWLNG [A17H]"
  measValue: -0.108
- residueSequence: "QEVDTIELTRQVMEKLAKNGICQRIFGEKVLGLSQGSVSDMLSRPKPWSKLTQKGREPFIRMQLWLNG [K13M]"
  measValue: -0.278

For each of the items listed, what is its abundance fitness?
1. QEVDTWELTRQVKEKLAKNGICQRIFGEKVLGLSQGSVSDMLSRPKPWSKLTQKGREPFIRMQLWLNG [I6W]
2. QEVDTIELTRQVKEKLAKNGICQRIFGEKVLGLSQGSVSDMLFRPKPWSKLTQKGREPFIRMQLWLNG [S43F]
3. QEVDTIELTRQVKEKLWKNGICQRIFGEKVLGLSQGSVSDMLSRPKPWSKLTQKGREPFIRMQLWLNG [A17W]
4. QEVDTIELTRQVKEKLAKNGICQRIFGEKVLGLSQGSVRDMLSRPKPWSKLTQKGREPFIRMQLWLNG [S39R]

Output line:
1. -0.368
2. -0.373
3. -0.269
4. 0.007

For each of the items listed, what is its abundance fitness?
1. QEVDTIELTRQVKEKLAKNGICQRIFGEKVLGLSQGSVSDMLSRPKDWSKLTQKGREPFIRMQLWLNG [P47D]
2. QEVDTIELTRQVKSKLAKNGICQRIFGEKVLGLSQGSVSDMLSRPKPWSKLTQKGREPFIRMQLWLNG [E14S]
3. QEVDTIELTRQVKEKLAKNGICQRIFSEKVLGLSQGSVSDMLSRPKPWSKLTQKGREPFIRMQLWLNG [G27S]
4. QEVDTIELTRQVKEKLAKIGICQRIFGEKVLGLSQGSVSDMLSRPKPWSKLTQKGREPFIRMQLWLNG [N19I]
5. QEVDTIELTRQVKEKLAKNGICQRIAGEKVLGLSQGSVSDMLSRPKPWSKLTQKGREPFIRMQLWLNG [F26A]

Output line:
[-0.158, -0.143, -0.008, 0.075, -0.649]

For each of the items listed, what is its abundance fitness?
1. QEVDTIELTRQVKEKLAKNGICQRIFGEKVLGLSQGSVSDMLSRPWPWSKLTQKGREPFIRMQLWLNG [K46W]
2. QEVDTIELTRQVKEKLAKNGICQRIFGEKVLGLCQGSVSDMLSRPKPWSKLTQKGREPFIRMQLWLNG [S34C]
3. QEVDTIELTRQVKEKWAKNGICQRIFGEKVLGLSQGSVSDMLSRPKPWSKLTQKGREPFIRMQLWLNG [L16W]
4. QEVDTIELTRQVKEKLAKNGICQRIFMEKVLGLSQGSVSDMLSRPKPWSKLTQKGREPFIRMQLWLNG [G27M]
5. QEVDTIELTRQVKEKLAKLGICQRIFGEKVLGLSQGSVSDMLSRPKPWSKLTQKGREPFIRMQLWLNG [N19L]
6. QEVDTIELTRQVKEKLRKNGICQRIFGEKVLGLSQGSVSDMLSRPKPWSKLTQKGREPFIRMQLWLNG [A17R]
7. QEVDTIELTRQVKEKLAKNGICQRIFAEKVLGLSQGSVSDMLSRPKPWSKLTQKGREPFIRMQLWLNG [G27A]

Output line:
-0.285
-0.09
-0.194
-0.208
0.125
-0.011
0.1

For each of the items listed, what is its abundance fitness?
1. QEVDTIELTRQVKEKLAKNGICQRIFGEKVWGLSQGSVSDMLSRPKPWSKLTQKGREPFIRMQLWLNG [L31W]
2. QEVDTIELTRQVKEKLAKNGICQRIFGEKVLGLSQGSVSDMLSREKPWSKLTQKGREPFIRMQLWLNG [P45E]

Output line:
1. -0.138
2. -0.526

Every entry's value here was drawn from the Human Domainome abundance scans (Beltran et al. 2025).
